B1: C10orf62 (parent)
chain: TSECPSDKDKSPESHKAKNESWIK

- Variants of: B1
- ASSAY_REMARKS: protein stability index of a GFP-peptide fusion (GPS, HEK-293T) (PSI 1-6); higher = more stable;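 further: lentivirally expressed fusions sorted by FACS into six bins by GFP to DsRed ratio, PSI derived from sequencing read proportions per bin multiplied by bin number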
- CONDITION_LABEL: c terminus: a fixed tail appended
Decision: protein stability index >= 3 yields satisfied, all other cases yield not satisfied.

Below are worked cases with known answers.
1. TSECPSDKDLSPESHKAKNESWIK [K10L] = satisfied
2. TSECPSDKDKSPEFHKAKNESWIK [S14F] = satisfied
3. TSECPSDKDKSPESHKAKNESWYK [I23Y] = satisfied

Prompt: # check: protein stability index of RSECPSDKDKSPESHKAKNESWIK [T1R] is greater than or equal to 3
Completion: satisfied

Prompt: # check: protein stability index of TSECPSDKDKSPESHKAKNWSWIK [E20W] is greater than or equal to 3
Completion: satisfied

Prompt: # check: protein stability index of TSECPSDKDKSPESHKAKAESWIK [N19A] is greater than or equal to 3
Completion: not satisfied
